# System: 454973-116-R2-J3-PDC spheroids, viability, % test/control
# ASSAY PROTOCOL: Anticancer human tumor 454973-116-R2-J3-PDC patient-derived pancreatic carcinoma cell line growth inhibition [GQUAD]
# RECORDED CONDITIONS: second compound 0.0316 µM; first compound 0.00999 µM; active compounds read low; spheroids with HUVEC and MSC

| COMPOUND | viability, T/C [%] |
| --- | --- |
| Cn1ncnc1[C@H]1c2n[nH]c(=O)c3cc(F)cc(c23)N[C@@H]1c1ccc(F)cc1 + Cc1cnc(CNC(=O)c2c(=O)c3ccc(N4CCCN(C)CC4)nc3n3c2sc2ccccc23)cn1 | 91.4 |
| Cc1[nH]c2ccccc2c1CCNCc1ccc(/C=C/C(=O)NO)cc1 + Cc1cnc(CNC(=O)c2c(=O)c3ccc(N4CCCN(C)CC4)nc3n3c2sc2ccccc23)cn1 | 106 |
| CCc1c2c(nc3ccc(O)cc13)-c1cc3c(c(=O)n1C2)COC(=O)[C@]3(O)CC + Cc1[nH]c2ccc(F)cc2c1-c1nc2c3cccnc3c3ncccc3c2[nH]1 | 21.5 |
| CC[C@@]1(O)C(=O)OCc2c1cc1n(c2=O)Cc2cc3c(CN(C)C)c(O)ccc3nc2-1 + CN(C)c1ccc(Nc2c3ccc(NC(=O)CCN4CCCC4)cc3nc3cc(NC(=O)CCN4CCCC4)ccc23)cc1 | 99.5 |
| Cn1ncnc1[C@H]1c2n[nH]c(=O)c3cc(F)cc(c23)N[C@@H]1c1ccc(F)cc1 + CN(C)c1ccc(Nc2c3ccc(NC(=O)CCN4CCCC4)cc3nc3cc(NC(=O)CCN4CCCC4)ccc23)cc1 | 94.2 |

* * *

# Test system: 454973-116-R2-J3-PDC spheroids, viability, % test/control
# ASSAY PROTOCOL: Anticancer human tumor 454973-116-R2-J3-PDC cell line growth inhibition [GQUAD];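 also: spheroids exposed to compounds for seven days; 100% = DMSO vehicle control viability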
# RECORDED CONDITIONS: second compound 0.0316 µM; first compound 1 µM; active compounds read low; spheroids with HUVEC and MSC

| COMPOUND | TEST SYSTEM | viability, T/C |
| --- | --- | --- |
| CC1COCCN1c1cc(C2(O)CC3CCC(C2)O3)c2cnn(-c3ccn[nH]3)c2n1 (stereo not drawn) + CN(C)c1ccc(Nc2c3ccc(NC(=O)CCN4CCCC4)cc3nc3cc(NC(=O)CCN4CCCC4)ccc23)cc1 | 454973-116-R2-J3-PDC spheroids, viability, % test/control | 23.3% |
| Cc1cccc(N(C)C(=O)C2C(O)CCN2c2nc(C)cc(C(F)(F)F)c2C#N)c1 (stereo not drawn) + CN(C)c1ccc(Nc2c3ccc(NC(=O)CCN4CCCC4)cc3nc3cc(NC(=O)CCN4CCCC4)ccc23)cc1 | 454973-116-R2-J3-PDC spheroids, viability, % test/control | 98.1% |
| COc1ccc([C@@H](O)c2cc(-c3ncnc4cc(N5CCOCC5)ccc34)c(F)cc2Cl)nn1 + Cc1cnc(CNC(=O)c2c(=O)c3ccc(N4CCCN(C)CC4)nc3n3c2sc2ccccc23)cn1 | 454973-116-R2-J3-PDC spheroids, viability, % test/control | 43.9% |

* * *

# Tested on: 454973-116-R2-J3-PDC spheroids, viability, % test/control
# ASSAY PROTOCOL: Anticancer human tumor 454973-116-R2-J3-PDC cell line growth inhibition [GQUAD];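 also: spheroids exposed to compounds for seven days; 100% = DMSO vehicle control viability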
# RECORDED CONDITIONS: second compound 3.16 µM; first compound 0.316 µM; active compounds read low; spheroids with HUVEC and MSC
# Text: DNA G-quadruplex Stabilizer Agents in Combinations in Complex Spheroids A high-throughput screen of multi-cell type tumor spheroids was designed to identify active combinations of DNA G-quadruplex stabilizer agents and targeted small molecules. […] Compounds. […] If the clinical Cmax for an agent had not been determined, the highest concentration tested was 10 microM. […]
Parameter: viability, T/C. Scope: all listed entries.

| COMPOUND | viability, T/C [%] |
| --- | --- |
| COc1cc(C2c3cc4c(cc3C(OC3OC5COC(C)OC5C(O)C3O)C3COC(=O)C23)OCO4)cc(OC)c1O (stereo unspecified) + Cc1cnc(CNC(=O)c2c(=O)c3ccc(N4CCCN(C)CC4)nc3n3c2sc2ccccc23)cn1 | 58.3 |
| CC(C)(O)C1CCC(Nc2ccc3ncc(-c4cccc(C(F)(F)F)c4)n3n2)CC1 (stereo unspecified) + Cc1[nH]c2ccc(F)cc2c1-c1nc2c3cccnc3c3ncccc3c2[nH]1 | 90.9 |
| CC1COCCN1c1cc(C2(O)CC3CCC(C2)O3)c2cnn(-c3ccn[nH]3)c2n1 (stereo unspecified) + Cc1cnc(CNC(=O)c2c(=O)c3ccc(N4CCCN(C)CC4)nc3n3c2sc2ccccc23)cn1 | 31.6 |
| COc1ccc([C@@H](O)c2cc(-c3ncnc4cc(N5CCOCC5)ccc34)c(F)cc2Cl)nn1 + Cc1cnc(CNC(=O)c2c(=O)c3ccc(N4CCCN(C)CC4)nc3n3c2sc2ccccc23)cn1 | 61.2 |
| O=c1[nH]cc(F)c(=O)[nH]1 + Cc1[nH]c2ccc(F)cc2c1-c1nc2c3cccnc3c3ncccc3c2[nH]1 | 99.9 |
| CC1COCCN1c1cc(C2(O)CC3CCC(C2)O3)c2cnn(-c3ccn[nH]3)c2n1 (stereo unspecified) + CN(C)c1ccc(Nc2c3ccc(NC(=O)CCN4CCCC4)cc3nc3cc(NC(=O)CCN4CCCC4)ccc23)cc1 | 33.6 |

From: PubChem BioAssay AID2060508
